# target.system: HLA-A*24:02
# assay.summary: IEDB peptide-MHC binding, purified MHC/competitive/radioactivity; filed as Kd, often an IC50 or EC50 that approximates it; bounds were set here for any values at or beyond the usual limits of such assays
# condition.details: source organism: Mammarenavirus brazilense
outcome.measure: Kd
# include the unit after the value

I am curious: what Kd value has been reported for GYKETPFLTI ?
159 nM

* * *

# target.system: HLA-A*02:03
# assay.summary: IEDB peptide-MHC binding, purified MHC/direct/fluorescence; filed as Kd, often an IC50 or EC50 that approximates it; bounds were set here for any values at or beyond the usual limits of such assays
# condition.details: source organism: Zaire ebolavirus
pKd: −log10 of the molar value.
outcome.measure: pKd

I am curious: what pKd value has been reported for ATAAATEAY ?
≤ 4.70

I am curious: what pKd value has been reported for HQKKNEISF ?
≤ 4.70
